# assay_protocol: Cytotoxicity against human HA59T cells by MTS colorimetric assay
# Type: functional, cell-based
observed_property: IC50
# do not omit the unit; it follows the number

Answered examples (2):
{"columns": ["sample_smiles", "experimental_value"],
 "data": [
  ["CC1=CCC[C@@H]2[C@@](C)(CCC3=CC(=O)O[C@@H]3O)[C@H](C)CC[C@@]12C", "23.6 µM"],
  ["COc1ccc2c(c1O)-c1nccc(C)c1C2=O", "21.7 µM"]
]}

Moving on to the next compound.
Entry `c1ccc2c(c1)C[C@H]1NCCc3cc4c(c-2c31)OCO4` has what IC50?
16.4 µM
